Test system: KB
Assay: in vitro
Assay type: cell-based, human
Settings: 10.0 μg/ml
Reported Absorbancy values for the following compounds.

- compound: "CCCCCCC(=O)CCCCCC/C=C/CC1OC(=O)C(N)(CO)C1O (stereo not drawn)"
  experimental_system: "KB"
  Absorbancy: 0.726
- compound: "CCCCCCC(O)CCCCCC/C=C/CC1OC(=O)C(N)(CO)C1O (stereo not drawn)"
  experimental_system: "KB"
  Absorbancy: 0.706
- compound: "CCCCCCC(O)CCCCCCCCCC1OC(=O)C(N)(CO)C1O (stereo not drawn)"
  experimental_system: "KB"
  Absorbancy: 0.610
- compound: "CCCCCCC(=O)CCCCCC/C=C/CC1OC(=O)C(CO)(NC(C)=O)C1O (stereo not drawn)"
  experimental_system: "KB"
  Absorbancy: 0.510
- compound: "CCCCCCC(=O)CCCCCCCCCC1OC(=O)C(N)(CO)C1O (stereo not drawn)"
  experimental_system: "KB"
  Absorbancy: 0.493
- compound: "CCCCCCC(O)CCCCCC/C=C/CC(O)C(O)C(N)(CO)C(=O)O (stereo not drawn)"
  experimental_system: "KB"
  Absorbancy: 0.707
- compound: "CCCCCCC(=O)CCCCCC/C=C/CC(O)C(O)C(N)(CO)C(=O)O (stereo not drawn)"
  experimental_system: "KB"
  Absorbancy: 0.886
- compound: "CCCCCCC(O)CCCCCCCCCC(O)C(O)C(N)(CO)C(=O)O (stereo not drawn)"
  experimental_system: "KB"
  Absorbancy: 0.696
- compound: "CCCCCCC(=O)CCCCCCCCCC(O)C(O)C(N)(CO)C(=O)O (stereo not drawn)"
  experimental_system: "KB"
  Absorbancy: 0.711
